# Experiment description: NCI Yeast Anticancer Drug Screen. Data for the rad50 strain (AID 155)
# Condition: S. cerevisiae rad50 strain growth inhibition; at 50.0 µM
Compounds without any hit were thinned out: in the full panel of roughly 79,000, 15% have a hit. Calls of active or inactive are those of the source. Cut-off read from the data, not from the text of the source: active = growth inhibition above about 70%; inactive = the rest.
Outcomes: active, inactive

1) Oc1[nH]c2ccccc2c1N=NC(=S)N1CCCCCC1 | inactive
2) O=C1C=CC(=O)N1CCc1ccccc1 | active
3) CCCCOC(=O)C(C)OC(=O)NNc1ccccc1 (stereo not drawn) | inactive
4) COc1ccc(-c2cn(-c3ccccc3)c3ncnc(N)c23)cc1 | inactive
5) CCOc1ccc(N=NS(=O)(=O)O)cc1 | inactive
6) COc1cc(C(=O)[O][Sn]([c]2ccccc2)([c]2ccccc2)[c]2ccccc2)cc(OC)c1OC | active
7) CCN(CC)CC(O)CNc1cc(C)nc(/N=C(\N)Nc2ccc(Cl)c(Cl)c2)n1 (stereo not drawn) | active
8) Cc1ccccc1Sc1ncnc2ccccc12 | active
9) CCCCCCCCNc1nc(Cl)nc2c1cnn2C | inactive
10) O=[N+]([O-])/C(Cl)=C/C(=C1/Nc2ccccc2O1)[N+](=O)[O-] | active
11) CC(=O)[O-].[Mn+3].[O-]c1ccc(Cl)cc1C=NCCN=Cc1cc(Cl)ccc1[O-] | active
12) Cc1cc(C(O)(c2cc(C)c(O)c(C(=O)O)c2)c2cc(C)c(O)c(C(=O)O)c2)cc(C(=O)O)c1O | inactive
13) O=C(CCC(O)(c1ccccc1)c1ccccc1)c1ccccc1 | inactive

Origin of the recorded values: PubChem BioAssay (NCI)
